Data credit: the supplement of paper PMC10567573

B1: SPOPL (parent)
chain: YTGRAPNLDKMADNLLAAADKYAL

Variants of: B1
Test: protein stability index of a GFP-peptide fusion (GPS, HEK-293T) (PSI 1-6); higher = more stable;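 note: lentivirally expressed fusions sorted by FACS into six bins by GFP to DsRed ratio, PSI derived from sequencing read proportions per bin multiplied by bin number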
Settings: c terminus: a fixed tail appended
Metric: protein stability index
Answers are plain numbers.

// for each variant in input: emit protein stability index
1. L15R
2. A23E
3. L15W
4. Y22M

2.43
2.77
1.93
1.93

Below are 6 variants. Give each one its protein stability index.
1. N14R
2. L15C
3. L15E
4. Y1M
5. A5N
6. M11H

[2.39, 2.87, 2.92, 3.06, 3, 2.47]

# batch: return protein stability index for each of the 3 variants below
1. A17M
2. L16E
3. K10N

1. 1.4
2. 3.22
3. 2.6

Give protein stability index for all variants that follow.
1. P6A
2. L24P

1. 1.88
2. 2.17
